Data origin, for the record: ChEMBL document CHEMBL4321867

# Test system: Serratia marcescens
# method.summary: microbe, parasite or virus in culture
quantity.measured: MIC90 (µg/mL)
Give just the number in µg/mL; leave the unit off.

So, C[C@@H](O)[C@H]1C(=O)N2C(C(=O)O)=C(SCCNC=N)C[C@H]12 [IMIPENEM ANHYDROUS] ? Its MIC90 was 1

So, O=C(O)c1cn(C2CC2)c2cc(N3CCNCC3)c(F)cc2c1=O [CIPROFLOXACIN] ? Its MIC90 was 0.25

So, CN(C)c1cc(NC(=O)CNC(C)(C)C)c(O)c2c1C[C@H]1C[C@H]3[C@H](N(C)C)C(O)=C(C(N)=O)C(=O)[C@@]3(O)C(O)=C1C2=O [TIGECYCLINE] ? Its MIC90 was 2

So, `CN1CC(C#CC#Cc2cc3n(c2)C(=O)N(CC[C@](C)(C(=O)NO)S(C)(=O)=O)C3)C1` ? Its MIC90 was 0.5

----------
# method.summary: physchem
Assign yes (1) whenever pKa does not fall below 8; assign no (0) whenever it does.

Here are 5 compounds together with their reported answers.
1) CN1CC(C#CC#Cc2cc3n(c2)C(=O)N(CC[C@](C)(C(=O)NO)S(C)(=O)=O)C3)C1 :: yes (1)
2) CN1CCC(C#CC#Cc2cc3n(c2)C(=O)N(CC[C@](C)(C(=O)NO)S(C)(=O)=O)C3)CC1 :: yes (1)
3) C[C@@](CCN1Cc2cc(C#CC#CC3CN(CCF)C3)cn2C1=O)(C(=O)NO)S(C)(=O)=O :: no (0)
4) CN(C)C1(C#CC#Cc2cc3n(c2)C(=O)N(CC[C@](C)(C(=O)NO)S(C)(=O)=O)C3)CC1 :: no (0)
5) C[C@@](CCN1Cc2cc(C#CC#CCN3CCC(O)CC3)cn2C1=O)(C(=O)NO)S(C)(=O)=O :: no (0)

Here's the next entry for you.
*Q* Item `C[C@@](CCN1Cc2cc(C#CC#CC3CN(CC(F)F)C3)cn2C1=O)(C(=O)NO)S(C)(=O)=O` with pKa of 8 or above?
*A* no (0)

----------
# method.summary: in vitro
# run.parameters: rat, liver microsomes
Measured microsomal CLint at 1 µM, listed per entry for reference.
Give just the number in µL/min/mg; leave the unit off.

1. C[C@@](CCN1Cc2cc(C#CC#C[C@H]3C[C@]3(F)CO)cn2C1=O)(C(=O)NO)S(C)(=O)=O :: 16

Proceed to the following item.
So, `CN1CC(C#CC#Cc2cc3n(c2)C(=O)N(CC[C@](C)(C(=O)NO)S(C)(=O)=O)C3)C1` ? Its microsomal CLint at 1 µM was 665

----------
Measured deltaTm, listed per entry for reference.
# System: UDP-3-O-acyl-N-acetylglucosamine deacetylase (Pseudomonas aeruginosa (strain ATCC 15692 / PAO1 / 1C / PRS 101 / LMG12228)), P47205 [C40S]
# Sequence (P47205 whole entry C40S): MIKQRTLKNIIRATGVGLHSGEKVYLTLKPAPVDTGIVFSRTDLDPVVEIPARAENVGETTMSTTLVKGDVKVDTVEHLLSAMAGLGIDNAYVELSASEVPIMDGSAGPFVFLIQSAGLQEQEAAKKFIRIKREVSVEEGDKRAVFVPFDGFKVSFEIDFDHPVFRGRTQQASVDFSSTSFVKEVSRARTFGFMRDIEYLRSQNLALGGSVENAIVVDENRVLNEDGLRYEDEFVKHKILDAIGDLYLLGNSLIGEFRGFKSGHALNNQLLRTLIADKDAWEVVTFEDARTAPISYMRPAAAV
# run.parameters: 25 uM
Give just the number in K; leave the unit off.

Solved cases below.
1) CC(C)(O)CN1CC(C#CC#Cc2cc3n(c2)C(=O)N(CC[C@](C)(C(=O)NO)S(C)(=O)=O)C3)C1 :: 12.1
2) CN1CC(F)(C#CC#Cc2cc3n(c2)C(=O)N(CC[C@](C)(C(=O)NO)S(C)(=O)=O)C3)C1 :: 11.6
3) CC(=O)N1CC(C#CC#Cc2cc3n(c2)C(=O)N(CC[C@](C)(C(=O)NO)S(C)(=O)=O)C3)C1 :: 12.4

Proceed to the following item.
So, `C[C@@](CCN1Cc2cc(C#CC#CCN3CCC(O)CC3)cn2C1=O)(C(=O)NO)S(C)(=O)=O` ? Its deltaTm was 11.5
